Collected IC50 values appear next to each entry.
- Tested on: Candida albicans
- Method: Antifungal activity against Candida albicans clinical isolate after 48 hrs by broth microdilution technique
- Assay type: functional, organism-based

Worked examples follow.
[[record]]
record_smiles = "CSC(=S)n1ccnc1"
system_tested = "Candida albicans"
readout_type = "IC50"
test_value = "> 50 µg/mL"

[[record]]
record_smiles = "N#CCCCSC(=S)n1cnc2ccccc21"
system_tested = "Candida albicans"
readout_type = "IC50"
test_value = "> 50 µg/mL"

[[record]]
record_smiles = "N#CCCCSC(=S)n1ccnc1"
system_tested = "Candida albicans"
readout_type = "IC50"
test_value = "10.8 µg/mL"


Consider C=CCSC(=S)n1cnc2ccccc21 . Its measured IC50 is > 50 µg/mL

So, C=CCSC(=S)n1ccnc1C ? Its IC50 was 2.1 µg/mL

GET /value?item= CCCCSC(=S)n1ccnc1 &field=IC50 returns 1.53 µg/mL

What the record says about C=CCSC(=S)n1cncn1 : IC50 is > 50 µg/mL

Just so you know, measured IC50 for CCCCCCCCSC(=S)n1ccnc1C came out at > 50 µg/mL
